Values were extracted from BigSolDB 2.1.

conditions: in isopropanol, 293.15 K
Quantity: solubility (mole fraction)

Look at this compound and give its reported solubility (mole fraction). CN1CCN(c2c(F)cc3c(=O)c(C(=O)O)cn4c3c2OCN4C)CC1
7.5e-05

* * *

details: in n-butanol, 313.15 K
Quantity: solubility (mole fraction)

Reported solubility (mole fraction), molecule CN1CCN(c2c(F)cc3c(=O)c(C(=O)O)cn4c3c2OCN4C)CC1 : ____
0.000254

* * *

conditions: in 1,4-dioxane, 298.15 K
Quantity: solubility (mole fraction)
Could you respond with only the numeric value?

Recorded solubility (mole fraction) for CN1CCN(c2c(F)cc3c(=O)c(C(=O)O)cn4c3c2OCN4C)CC1 , please?
0.000153
